The entries below come with measured IC50 values attached.
system: Wi-38 cells; assay: MTT cytotoxicity assay, normal cells; assay type: cell-based; settings: WI-38, normal human lung fibroblast cells, 48 h
Answer in µg/mL, number only, no unit symbol.

Some solved entries appear below for comparison.
1. O=C(Nc1ccc(Nc2ccnc3cc(Cl)ccc23)cc1)c1cc2ccccc2oc1=O [Compound A]    139
2. O=c1[nH]cc(F)c(=O)[nH]1 [Compound 5-FU, 5-fluorouracil, reference compound]    5.23
3. O=C(Nc1ccc(Nc2c3ccccc3nc3ccccc23)cc1)c1cc2ccccc2oc1=O [Compound B]    126

Could you now consider this next compound?
Form: item Cc1ccc(-c2nnc(Nc3ccc(NC(=O)c4cc5ccccc5oc4=O)cc3)c3ccccc23)cc1 [Compound C] ; test system Wi-38 cells; IC50: 137

----------
system: A549 cells; assay: MTT anticancer assay; type: cell-based, human; conditions: Homo sapiens, A549, lung carcinoma cells, 48 h
Experimental endpoint: IC50 (µg/mL)
Answer in µg/mL, number only, no unit symbol.

Some solved entries appear below for comparison.
1. Cc1ccc(-c2nnc(Nc3ccc(NC(=O)c4cc5ccccc5oc4=O)cc3)c3ccccc23)cc1 [Compound C]    12.2
2. O=C(Nc1ccc(Nc2c3ccccc3nc3ccccc23)cc1)c1cc2ccccc2oc1=O [Compound B]    6.98

The compound O=C(Nc1ccc(Nc2ccnc3cc(Cl)ccc23)cc1)c1cc2ccccc2oc1=O [Compound A] showed IC50 equal to 11.5

The compound O=c1[nH]cc(F)c(=O)[nH]1 [Compound 5-FU, 5-fluorouracil, reference compound] showed IC50 equal to 5.74

----------
The entries below come with measured IC50 values attached.
test system: Caco-2 cells; experiment: MTT anticancer assay; assay type: cell-based; conditions: Homo sapiens, Caco-2; colon carcinoma cells, MTT, 48 h
Answer in µg/mL, number only, no unit symbol.

Some solved entries appear below for comparison.
1. O=C(Nc1ccc(Nc2ccnc3cc(Cl)ccc23)cc1)c1cc2ccccc2oc1=O [Compound A]    9.03
2. Cc1ccc(-c2nnc(Nc3ccc(NC(=O)c4cc5ccccc5oc4=O)cc3)c3ccccc23)cc1 [Compound C]    7.11
3. O=c1[nH]cc(F)c(=O)[nH]1 [Compound 5-FU, 5-fluorouracil, reference compound]    6.13

The compound O=C(Nc1ccc(Nc2c3ccccc3nc3ccccc23)cc1)c1cc2ccccc2oc1=O [Compound B] showed IC50 equal to 4.87
